molecular target: T1, Recombinant Human DLL4 (R&D Systems Cat#1506-D4/CF) (human, UniProt Q9NR61 27-529); experiment: ECL 96-well plate assay (MSD), 0.02 µM Fab, plate coated with 15 µg/mL DLL4
T1 construct: Bought recombinant protein, coated on the plate; also called delta-like protein 4; rHuman DLL4
measured endpoint: Signal/Noise
The reply should be a number, written without any unit.

| binder | Signal/Noise |
| --- | --- |
| Fab VH5-51_IGHD5-18*01>3_IGHJ4*01 G100A & V3-4_IGLJ1*01 (Fab, V domains shown, Heavy chain CDR3 alanine mutant of the parent Fab; Fab format as for the parent) VH: EVQLVQSGAEVKKPGESLKISCKGSGYSFTSYWIGWVRQMPGKGLEWMGIIYPGDSDTRYSPSFQGQVTISADKSISTAYLQWSSLKASDTAMYYCARRAYSYGYDYFDYWGQGTLVTVSS VL: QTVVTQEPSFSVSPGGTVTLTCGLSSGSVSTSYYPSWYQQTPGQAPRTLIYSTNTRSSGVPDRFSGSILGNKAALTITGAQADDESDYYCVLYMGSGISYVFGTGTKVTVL | 24.2 |

Form: binder = Fab VH5-51_IGHD5-18*01>3_IGHJ4*01 Y103A & V3-4_IGLJ1*01 (Fab, V domains shown, Heavy chain CDR3 alanine mutant of the parent Fab; Fab format as for the parent) VH: EVQLVQSGAEVKKPGESLKISCKGSGYSFTSYWIGWVRQMPGKGLEWMGIIYPGDSDTRYSPSFQGQVTISADKSISTAYLQWSSLKASDTAMYYCARRGYSAGYDYFDYWGQGTLVTVSS VL: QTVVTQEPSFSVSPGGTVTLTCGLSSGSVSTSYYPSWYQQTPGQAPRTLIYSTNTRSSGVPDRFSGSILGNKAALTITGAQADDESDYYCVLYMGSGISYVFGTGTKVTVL ; Signal/Noise = 1.5

Form: binder = Fab VH5-51_IGHD5-18*01>3_IGHJ4*01 S102A & V3-4_IGLJ1*01 (Fab, V domains shown, Heavy chain CDR3 alanine mutant of the parent Fab; Fab format as for the parent) VH: EVQLVQSGAEVKKPGESLKISCKGSGYSFTSYWIGWVRQMPGKGLEWMGIIYPGDSDTRYSPSFQGQVTISADKSISTAYLQWSSLKASDTAMYYCARRGYAYGYDYFDYWGQGTLVTVSS VL: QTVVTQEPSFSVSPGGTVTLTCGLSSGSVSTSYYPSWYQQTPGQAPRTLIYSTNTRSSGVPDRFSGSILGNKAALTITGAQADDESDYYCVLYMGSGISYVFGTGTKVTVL ; Signal/Noise = 1.8

Form: binder = Fab VH5-51_IGHD5-18*01>3_IGHJ4*01 & V3-4_IGLJ1*01 (Fab, V domains shown, Tested as Fab from E. coli; VH was cloned into Plasmid A, which supplies CH1 and His6 and Flag tags; The lambda VL was cloned into Plasmid E, which supplies lambda CL; also called wildtype; parent Hit Fab VH5-51_IGHD5-18*01_IGHJ4*01 & V3-4_IGLJ1*01) VH: EVQLVQSGAEVKKPGESLKISCKGSGYSFTSYWIGWVRQMPGKGLEWMGIIYPGDSDTRYSPSFQGQVTISADKSISTAYLQWSSLKASDTAMYYCARRGYSYGYDYFDYWGQGTLVTVSS VL: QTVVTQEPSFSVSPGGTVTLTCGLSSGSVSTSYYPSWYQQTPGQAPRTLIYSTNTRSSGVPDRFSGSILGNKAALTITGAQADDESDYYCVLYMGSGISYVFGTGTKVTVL ; Signal/Noise = 15.2

Form: binder = Fab VH5-51_IGHD5-18*01>3_IGHJ4*01 G104A & V3-4_IGLJ1*01 (Fab, V domains shown, Heavy chain CDR3 alanine mutant of the parent Fab; Fab format as for the parent) VH: EVQLVQSGAEVKKPGESLKISCKGSGYSFTSYWIGWVRQMPGKGLEWMGIIYPGDSDTRYSPSFQGQVTISADKSISTAYLQWSSLKASDTAMYYCARRGYSYAYDYFDYWGQGTLVTVSS VL: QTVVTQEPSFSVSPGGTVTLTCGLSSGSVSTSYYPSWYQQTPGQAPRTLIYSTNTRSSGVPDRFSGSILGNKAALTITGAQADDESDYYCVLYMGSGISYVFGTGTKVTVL ; Signal/Noise = 12.5

Form: binder = Fab VH5-51_IGHD5-18*01>3_IGHJ4*01 Y105A & V3-4_IGLJ1*01 (Fab, V domains shown, Heavy chain CDR3 alanine mutant of the parent Fab; Fab format as for the parent) VH: EVQLVQSGAEVKKPGESLKISCKGSGYSFTSYWIGWVRQMPGKGLEWMGIIYPGDSDTRYSPSFQGQVTISADKSISTAYLQWSSLKASDTAMYYCARRGYSYGADYFDYWGQGTLVTVSS VL: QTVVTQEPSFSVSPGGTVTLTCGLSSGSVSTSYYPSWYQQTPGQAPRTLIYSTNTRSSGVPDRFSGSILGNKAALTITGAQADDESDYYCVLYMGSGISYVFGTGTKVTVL ; Signal/Noise = 1
